target.of.assay: REFACTO® (recombinant factor VIII-like polypeptide consisting of amino acids 1-743 and 1638 through 2332 of human factor VIII) (human) (UniProt P00451)
Sequence (P00451 20-762, chain 1 of 2): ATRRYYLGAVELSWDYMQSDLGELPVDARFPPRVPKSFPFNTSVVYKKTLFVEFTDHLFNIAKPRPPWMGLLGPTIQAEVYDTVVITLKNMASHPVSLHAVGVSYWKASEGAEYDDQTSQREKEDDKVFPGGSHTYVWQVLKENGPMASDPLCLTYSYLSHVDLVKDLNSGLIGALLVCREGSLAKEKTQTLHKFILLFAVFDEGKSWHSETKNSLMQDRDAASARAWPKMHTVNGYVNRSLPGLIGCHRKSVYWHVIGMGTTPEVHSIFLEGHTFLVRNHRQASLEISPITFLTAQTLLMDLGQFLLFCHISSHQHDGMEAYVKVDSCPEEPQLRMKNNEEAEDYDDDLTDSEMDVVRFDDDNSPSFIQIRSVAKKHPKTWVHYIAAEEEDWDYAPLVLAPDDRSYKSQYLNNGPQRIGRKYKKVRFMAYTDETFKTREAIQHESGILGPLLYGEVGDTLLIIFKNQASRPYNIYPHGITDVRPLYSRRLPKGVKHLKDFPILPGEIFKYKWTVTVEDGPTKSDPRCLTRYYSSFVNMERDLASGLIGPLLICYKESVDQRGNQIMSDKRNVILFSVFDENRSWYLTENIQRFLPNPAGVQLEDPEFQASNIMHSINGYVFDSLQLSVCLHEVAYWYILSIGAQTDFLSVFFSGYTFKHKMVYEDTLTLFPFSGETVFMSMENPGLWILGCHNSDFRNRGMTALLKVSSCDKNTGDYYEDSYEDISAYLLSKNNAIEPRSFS
Sequence (P00451 1657-2351, chain 2 of 2): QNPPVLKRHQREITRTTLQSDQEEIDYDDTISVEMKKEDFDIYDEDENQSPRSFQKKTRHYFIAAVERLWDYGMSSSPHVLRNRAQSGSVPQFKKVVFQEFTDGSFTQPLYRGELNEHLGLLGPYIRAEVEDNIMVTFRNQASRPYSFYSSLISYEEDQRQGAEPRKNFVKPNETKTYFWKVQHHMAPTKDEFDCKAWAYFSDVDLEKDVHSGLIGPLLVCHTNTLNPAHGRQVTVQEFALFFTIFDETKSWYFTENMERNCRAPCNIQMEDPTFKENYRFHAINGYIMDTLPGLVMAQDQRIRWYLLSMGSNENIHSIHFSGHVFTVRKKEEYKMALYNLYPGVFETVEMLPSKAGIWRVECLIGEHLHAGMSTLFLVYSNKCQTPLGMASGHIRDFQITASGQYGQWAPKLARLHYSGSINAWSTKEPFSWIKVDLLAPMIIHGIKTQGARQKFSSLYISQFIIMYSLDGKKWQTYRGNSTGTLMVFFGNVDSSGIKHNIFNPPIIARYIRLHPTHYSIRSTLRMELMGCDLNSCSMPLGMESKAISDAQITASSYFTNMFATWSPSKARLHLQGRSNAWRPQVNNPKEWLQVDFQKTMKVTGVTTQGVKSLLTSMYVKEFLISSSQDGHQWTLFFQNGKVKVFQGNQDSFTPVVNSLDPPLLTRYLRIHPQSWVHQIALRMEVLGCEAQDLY
test.summary: affinity column, peptide on Toyopearl Formyl 650-M; fraction quantified by factor VIII activity assay
Positions of bridges follow the written chain, without caps; N, C: chain ends. No end group written: not given here. *: point of attachment. NHNH2 = NN*
Output Condition met for records whose % recovery in elution A is lower than 30%, Condition not met for records at or above 30%.

AEGTGDHPCGSWLRPCLHDPGPEGGGS-NHNH2 (disulfide 9-16 (inferred)) [CS-453 (…-NHNH2)] : Condition met
AEGTGDFCWVFPFQHCADPGPEGGGS-NHNH2 (disulfide 8-16 (inferred)) [CS-459 (…-NHNH2)] : Condition not met
AEGTGDFCWVFAFDHCHDPGPEGGGS-NHNH2 (disulfide 8-16) [CS-458 (…-NHNH2)] : Condition not met
AEGTGDFCWVFPFHHCFDPGPEGGGS-NHNH2 (disulfide 8-16 (inferred)) [CS-460 (…-NHNH2)] : Condition met
AEGTGDFHCIGVWFCLHDPGPEGGGS-NHNH2 (disulfide 9-15 (inferred)) [CS-455 (…-NHNH2)] : Condition met
AEGTGDFGCSWLFPCPFDPGPEGGGS-NHNH2 (disulfide 9-15) [CS-456 (…-NHNH2)] : Condition not met

Task: Here's an entry: AEGTGDHLCGAWFRPCDADPGPEGGGS-NHNH2 (disulfide 9-16) [CS-454 (…-NHNH2)] . Is its % recovery in elution A below 30%?
Output: Condition not met
